- Tested Target: rat brain N-type calcium channel subunits (α1B+α2δ+β1b cDNA subunits) (Rattus norvegicus, UniProt Q02294)
- Construct: expressed in transfected cells; host or cells: HEK 293 (stably, alternatively transiently, transfected)
- Sequence (Q02294 whole entry): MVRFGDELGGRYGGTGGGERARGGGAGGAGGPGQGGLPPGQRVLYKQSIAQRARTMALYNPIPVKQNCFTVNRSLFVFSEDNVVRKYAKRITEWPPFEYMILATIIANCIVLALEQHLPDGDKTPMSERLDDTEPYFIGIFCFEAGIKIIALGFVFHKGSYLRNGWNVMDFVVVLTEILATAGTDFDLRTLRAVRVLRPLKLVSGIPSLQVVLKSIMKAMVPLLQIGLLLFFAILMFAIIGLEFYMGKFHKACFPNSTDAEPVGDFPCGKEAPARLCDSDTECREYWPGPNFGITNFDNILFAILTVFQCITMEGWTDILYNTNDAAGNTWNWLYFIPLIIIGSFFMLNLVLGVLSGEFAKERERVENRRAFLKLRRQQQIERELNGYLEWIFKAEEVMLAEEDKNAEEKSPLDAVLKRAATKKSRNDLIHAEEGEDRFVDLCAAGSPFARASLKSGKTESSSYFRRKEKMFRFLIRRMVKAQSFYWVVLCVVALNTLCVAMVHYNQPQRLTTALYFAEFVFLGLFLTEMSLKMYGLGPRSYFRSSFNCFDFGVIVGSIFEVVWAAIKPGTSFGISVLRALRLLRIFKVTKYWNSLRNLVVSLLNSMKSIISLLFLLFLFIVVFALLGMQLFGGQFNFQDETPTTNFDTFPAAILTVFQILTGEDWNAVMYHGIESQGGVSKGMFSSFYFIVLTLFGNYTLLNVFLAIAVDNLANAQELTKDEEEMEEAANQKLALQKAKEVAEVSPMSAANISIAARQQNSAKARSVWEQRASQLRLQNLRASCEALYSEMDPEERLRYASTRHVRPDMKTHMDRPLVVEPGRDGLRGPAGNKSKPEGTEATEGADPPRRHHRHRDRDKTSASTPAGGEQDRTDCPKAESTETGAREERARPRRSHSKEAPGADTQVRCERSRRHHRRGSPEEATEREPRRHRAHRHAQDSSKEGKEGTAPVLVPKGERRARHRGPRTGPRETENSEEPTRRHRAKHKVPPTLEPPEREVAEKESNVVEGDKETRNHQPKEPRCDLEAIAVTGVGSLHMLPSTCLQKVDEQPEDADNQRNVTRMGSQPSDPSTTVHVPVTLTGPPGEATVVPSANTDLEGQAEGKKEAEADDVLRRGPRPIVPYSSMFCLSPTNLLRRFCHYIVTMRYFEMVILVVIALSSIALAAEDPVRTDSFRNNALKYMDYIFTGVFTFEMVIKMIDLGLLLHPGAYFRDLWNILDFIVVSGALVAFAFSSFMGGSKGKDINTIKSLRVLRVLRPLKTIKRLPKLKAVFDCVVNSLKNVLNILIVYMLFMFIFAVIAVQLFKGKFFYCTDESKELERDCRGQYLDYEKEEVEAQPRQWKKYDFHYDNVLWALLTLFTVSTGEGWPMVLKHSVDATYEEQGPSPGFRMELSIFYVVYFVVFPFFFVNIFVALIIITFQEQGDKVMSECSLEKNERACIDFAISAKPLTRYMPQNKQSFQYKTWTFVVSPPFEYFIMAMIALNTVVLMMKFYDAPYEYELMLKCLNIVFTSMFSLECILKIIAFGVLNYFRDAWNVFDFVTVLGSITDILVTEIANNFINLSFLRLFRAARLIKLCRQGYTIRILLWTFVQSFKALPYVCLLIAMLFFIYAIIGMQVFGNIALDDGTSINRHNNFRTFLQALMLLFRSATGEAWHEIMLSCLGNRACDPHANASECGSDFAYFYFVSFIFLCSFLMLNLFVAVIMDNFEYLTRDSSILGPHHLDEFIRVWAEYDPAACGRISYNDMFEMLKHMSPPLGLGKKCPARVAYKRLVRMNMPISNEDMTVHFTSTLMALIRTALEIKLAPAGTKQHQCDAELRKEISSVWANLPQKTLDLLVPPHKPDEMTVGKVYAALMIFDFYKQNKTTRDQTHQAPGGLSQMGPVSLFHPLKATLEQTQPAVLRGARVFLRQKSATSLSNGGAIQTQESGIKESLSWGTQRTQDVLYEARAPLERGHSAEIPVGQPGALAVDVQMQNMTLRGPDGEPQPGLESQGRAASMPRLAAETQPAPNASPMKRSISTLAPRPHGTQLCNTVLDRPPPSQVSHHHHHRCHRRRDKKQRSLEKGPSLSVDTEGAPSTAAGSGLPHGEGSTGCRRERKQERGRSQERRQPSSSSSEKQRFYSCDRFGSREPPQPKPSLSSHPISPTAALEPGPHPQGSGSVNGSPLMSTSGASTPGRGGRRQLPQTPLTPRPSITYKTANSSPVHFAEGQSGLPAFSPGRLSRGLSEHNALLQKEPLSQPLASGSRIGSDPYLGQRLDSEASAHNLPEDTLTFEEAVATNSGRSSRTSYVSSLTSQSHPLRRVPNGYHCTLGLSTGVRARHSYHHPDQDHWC
- Sequence (P54290 25-944 partner limits assumed): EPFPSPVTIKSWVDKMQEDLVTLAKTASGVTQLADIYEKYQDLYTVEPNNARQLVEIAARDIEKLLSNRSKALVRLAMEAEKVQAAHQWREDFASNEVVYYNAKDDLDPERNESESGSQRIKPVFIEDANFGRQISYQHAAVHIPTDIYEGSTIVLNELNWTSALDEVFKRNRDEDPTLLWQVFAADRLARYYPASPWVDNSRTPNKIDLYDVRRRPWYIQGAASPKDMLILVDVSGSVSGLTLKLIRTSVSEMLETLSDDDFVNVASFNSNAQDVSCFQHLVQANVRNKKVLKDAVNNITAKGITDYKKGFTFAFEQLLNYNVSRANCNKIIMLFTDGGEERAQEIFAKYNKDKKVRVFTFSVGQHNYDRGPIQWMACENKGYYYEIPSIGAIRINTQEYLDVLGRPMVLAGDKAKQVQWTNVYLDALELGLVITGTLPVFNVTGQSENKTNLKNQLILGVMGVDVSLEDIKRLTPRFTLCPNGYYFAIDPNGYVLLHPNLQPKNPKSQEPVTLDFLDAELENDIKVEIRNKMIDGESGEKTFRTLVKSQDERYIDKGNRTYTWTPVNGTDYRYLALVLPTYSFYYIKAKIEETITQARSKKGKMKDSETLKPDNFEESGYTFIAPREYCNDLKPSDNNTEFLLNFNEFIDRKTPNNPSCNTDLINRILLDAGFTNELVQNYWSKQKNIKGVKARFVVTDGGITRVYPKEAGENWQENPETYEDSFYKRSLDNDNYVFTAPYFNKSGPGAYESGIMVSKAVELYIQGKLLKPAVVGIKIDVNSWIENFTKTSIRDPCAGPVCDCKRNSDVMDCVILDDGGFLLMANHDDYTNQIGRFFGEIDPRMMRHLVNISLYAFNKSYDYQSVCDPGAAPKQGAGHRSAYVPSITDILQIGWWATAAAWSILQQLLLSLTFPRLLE
- Sequence (P54290 945-1091 partner limits assumed): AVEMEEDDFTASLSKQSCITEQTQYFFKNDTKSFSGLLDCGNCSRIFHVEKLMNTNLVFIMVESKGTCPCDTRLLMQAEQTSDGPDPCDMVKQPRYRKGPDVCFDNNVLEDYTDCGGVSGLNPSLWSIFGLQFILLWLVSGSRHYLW
- Sequence (P54283 whole entry partner): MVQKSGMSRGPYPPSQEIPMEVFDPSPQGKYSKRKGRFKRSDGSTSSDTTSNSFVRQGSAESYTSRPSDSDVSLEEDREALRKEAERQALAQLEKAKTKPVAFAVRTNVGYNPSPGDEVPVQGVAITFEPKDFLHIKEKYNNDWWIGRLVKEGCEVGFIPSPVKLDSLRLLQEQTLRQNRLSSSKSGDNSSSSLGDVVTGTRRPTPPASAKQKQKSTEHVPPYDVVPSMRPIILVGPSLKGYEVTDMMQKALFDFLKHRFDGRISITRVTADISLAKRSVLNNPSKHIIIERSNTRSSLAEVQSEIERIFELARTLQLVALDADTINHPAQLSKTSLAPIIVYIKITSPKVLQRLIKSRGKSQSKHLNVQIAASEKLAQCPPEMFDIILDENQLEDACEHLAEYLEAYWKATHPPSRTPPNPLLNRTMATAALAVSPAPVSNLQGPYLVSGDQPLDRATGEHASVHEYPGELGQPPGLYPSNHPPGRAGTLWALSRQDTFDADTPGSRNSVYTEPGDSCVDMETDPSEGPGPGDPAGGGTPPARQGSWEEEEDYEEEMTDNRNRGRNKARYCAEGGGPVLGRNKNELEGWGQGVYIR
- Assay Summary: N-type calcium channel block, whole cell patch clamp in HEK 293 cells
- Type: cell-based
- Measurement Context: low frequency stimulation 0.067 Hz (tonic block); holding potential −80 mV to +10 mV; read-out: IC50 @ 0.067 Hz
Quantity: IC50 (nM)

Example compounds with recorded IC50:
Compound	Quantity	Units Of Measure	Endpoint Value
O=C(COC(c1ccccc1)c1ccccc1)N1CCN(C(c2ccccc2)c2ccccc2)C(CO)C1 (centres unmarked) [Compound 50]	IC50	nM	400
O=C(CNc1cc(Cl)cc(Cl)c1)N1CCN(C(c2ccccc2)c2ccccc2)CC1 [Compound 22]	IC50	nM	2400

(A) O=C(CNC(c1ccccc1)c1ccccc1)N1CCN(C(c2ccccc2)c2ccccc2)C(CO)C1 (centres unmarked) [Compound 49]
(B) O=C(CNc1cc(F)cc(F)c1)N1CCN(C(c2ccccc2)c2ccccc2)CC1 [Compound 21]
(C) O=C(CNC(c1ccccc1)c1ccccc1)N1CCN(C(c2ccc(F)cc2)c2ccc(F)cc2)CC1 [Compound 29]
Exercise: Reorder: IC50, max to min. // list labels; follow requested order
Key: B, A, C

(1) CN(CC(=O)N1CCN(C(c2ccccc2)c2cccc(C(F)(F)F)c2)CC1)C(c1ccccc1)c1ccccc1 (centres unmarked) [Compound 7]
(2) CN(CC(=O)N1CCN(C(c2ccccc2)c2ccccc2)CC1)C(c1ccccc1)c1ccccc1 [Compound 2]
Exercise: Choose between 1 and 2 : whose measured IC50 value is numerically larger? // return label of chosen record
Key: 1
(1: 1460 nM, 2: 520 nM)
